Quick record of Ki values for Carbonic anhydrase 2 (Homo sapiens, UniProt P00918).
OBSERVATION TYPE: Ki (µM)

CCCCn1c(S)nnc1-c1ccc(S(=O)(=O)c2ccccc2)cc1 | 604

[A] CCCCn1c(-c2ccc(S(=O)(=O)c3ccc(Cl)cc3)cc2)n[nH]c1=S
[B] CCCn1c(-c2ccc(S(=O)(=O)c3ccc(Br)cc3)cc2)n[nH]c1=S
Task: Endpoint returns the identifier whose Ki is numerically larger, either A or B . Kindly state the label of the option you pick.
Output: B
(B: 382 µM, A: 227 µM)

---

TGT: Carbonic anhydrase 9 (Homo sapiens, UniProt Q16790)
ASSAY OVERVIEW: Inhibitory constant against human Carbonic anhydrase IX
pKi: −log10 of the molar value.
OBSERVATION TYPE: pKi

Consider the worked cases shown below.
O=[N+]([O-])c1ccccc1S(=O)(=O)Nc1n[nH]c(=S)s1 | 3.50
O=[N+]([O-])c1ccc(SNc2n[nH]c(=S)s2)cc1 | 3.59
Nc1nnc(S)s1 | 5.03
Cc1ccc(-n2c(-c3ccc(S(=O)(=O)c4ccc(Br)cc4)cc3)n[nH]c2=S)cc1 | 4.22
CCCn1c(-c2ccc(S(=O)(=O)c3ccc(Cl)cc3)cc2)n[nH]c1=S | 5.01
O=C(Nc1nnc(S)s1)c1c(F)c(F)c(F)c(F)c1F | 3.51
O=C(Nc1ccc(Cl)c(Cl)c1)Nc1nnc(S)s1 | 3.57
CCCCn1c(-c2ccc(S(=O)(=O)c3ccc(Br)cc3)cc2)n[nH]c1=S | 4.94

[P] CCCn1c(-c2ccc(S(=O)(=O)c3ccc(Br)cc3)cc2)n[nH]c1=S
[Q] O=C(Nc1nnc(S)s1)NS(=O)(=O)Nc1nnc(S)s1
Task: Please state the entry with greater pKi among P and Q . Write down the label of the entry you select.
Output: Q

// provenance: ChEMBL document CHEMBL1141925
